Value source: the RNAGym collection of RNA variant scans (doi:10.1073/pnas.2313332121)

B1: TPR t1 (parent)
chain: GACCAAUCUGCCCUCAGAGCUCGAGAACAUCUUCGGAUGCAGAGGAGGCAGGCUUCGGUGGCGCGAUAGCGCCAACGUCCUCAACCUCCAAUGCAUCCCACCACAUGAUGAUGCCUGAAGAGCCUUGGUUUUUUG

# Variants of: B1
# ASSAY_REMARKS: polymerase ribozyme fitness, log enrichment relative to wild type (log ratio); higher = more active; in vitro selection for triplet polymerase activity
Listed below: polymerase ribozyme fitness (log ratio) values for each entry.

- ENTRY_SEQUENCE: "GACCAAUCUGCCCUCAGAGCUCGAGAACAUCUUCGGAUGCAGAGGAGGCAGGCUUCGGUGGCGCGAUAGCGCCAACAUCCUCAACCUCCAAUGCAUCUCACCACAUGAUGAUGCCUGAAGAGCCUCGGUCUUUUG [G77A C98U U126C U130C]"
  polymerase ribozyme fitness (log ratio): -1.62
- ENTRY_SEQUENCE: "GACCAAUCUGCCCUCAGUGCUCGAGAACAUCUUCGGAUGCAGAGGAGGCAGGCUUCGGUGGCGCGAUAGCGCCAACGUCCUCAACCUCAAAUGCAUCCCACCACAUGAUGAUGCCUGAAGAGCCUUGGUUUUAUG [A18U C89A U133A]"
  polymerase ribozyme fitness (log ratio): -2.21
- ENTRY_SEQUENCE: "GACCAAUCUGCCUUCAGAGCUCGAGAACAUCUUCGGAUGCAGAGGAGGCAGGCUUCGGUGGCGCGAUAGCGCCAACGUCCUCGACCUCCAAUGCAUCCCACCACAUGAUGAUGCCUGAAGAGCCUUGGUUUUUUG [C13U A83G]"
  polymerase ribozyme fitness (log ratio): 0.0266
- ENTRY_SEQUENCE: "GAACAAUGUGCCCUCAGAGCUCGAGAACAUCUUCGGGUGCAGAGGAGGCAGGCUUCGGUGGCGCGAUAGCGCCAACGUCCUCAACCUCCAAUACAUCCCACCACAUGAUGAUGCCUGAAGAGCCUUGGUUUUUUG [C3A C8G A37G G93A]"
  polymerase ribozyme fitness (log ratio): -0.343
- ENTRY_SEQUENCE: "GACCAAUCUGGCCUCAGAGCUCGAGAACAUCUUCGGAUGCAGAGGAUGCAGGCUUCGGUGGCGCGAUAGCGCCAACGUCCUCAACCUCCAAUGCAUCCCACCACAUGAUGAUGCCUGAAGAGCCUUGGUUUUUUG [C11G G47U]"
  polymerase ribozyme fitness (log ratio): -0.345
- ENTRY_SEQUENCE: "GACCAAUCUGCCCUCAGAGCUCGAGAACAUCUUCGGAUGCAGAGGAGGCAGGCUUCGGUGGCGCGAUAGCGCCAACGUCCUCAACCUCCAAUGCACCCCACCACAUGAUGAUGCCUGAAGAGGCUUGGUUUUUUG [U96C C123G]"
  polymerase ribozyme fitness (log ratio): 1.78
- ENTRY_SEQUENCE: "GACCAAUCUGCCCUCAGAGCUCGAGAACAUCUUUGGAUGCAGAGGAGGCUGGCUUCGGUGGCGCGAUAGCGCCAACGUCCUCAACCUCCAAUGCAUCCCACCACAUGAUGAUGCCUGAAGAGCCUUGGUUUUUUG [C34U A50U]"
  polymerase ribozyme fitness (log ratio): -3.8
- ENTRY_SEQUENCE: "GACCAAUCUGCCCUCAGAGCUCGAGAACAUCUUCGGAUGCAGAGGAGGCAGGCUUCGGUGGCGCGAUAGCGCCAACGUCCUCAACCUCGAAUGCAUCCCACCACAUGAAGAUGCCUGAAGAGCCUUGGUUUUUUG [C89G U109A]"
  polymerase ribozyme fitness (log ratio): -5.37
- ENTRY_SEQUENCE: "GACCAAUCUGCCCUCAGAGCUCGAGAACAUCUUCGGAUGCAGAGGAGGCAGGCUUCGGUGGCGCGAUAGCGCAAACGUCCUCAACCCCCAAUGCACCCCACCACAUGAUGGUGCCUGAAGAGCCUUGGUUUUUUG [C73A U87C U96C A111G]"
  polymerase ribozyme fitness (log ratio): -0.596
- ENTRY_SEQUENCE: "GACCAAACUGCCCUCAGAGCUCGAGAACAUCUUCGGAUGCAGAGGAGGCAGACUUCGGUGGCGCGAUAGCGCCAACGUCCUCAACCUCCAAUGCAUCCCACCACAUGAUGCUGCCUGAAGAGCCUUGGUUUUUUG [U7A G52A A111C]"
  polymerase ribozyme fitness (log ratio): 0.419
- ENTRY_SEQUENCE: "GACCAAUCUGCCAUCAGAGCUCGAGAACAUCUUCGGAUGCGGAGGAGGCAGGCUUCGGUGGCGCGAUAACGCCAACGUCCUCAACCUCCAAUGCAUCCCACCACAUGAUGAUGCCUGAAGAGCCUUGGUUUUUUG [C13A A41G G69A]"
  polymerase ribozyme fitness (log ratio): -5.37
- ENTRY_SEQUENCE: "GACCAAUCUGGCCUCAGAGCUCGAGAACAUCUUCGGAUGCAGAGGAGGCAGGCUUCGGUGGCGCGAUAGCGCCAACGUCCUCAACCUCCAAUGCAUCCCACCACAUGAUGAUACCUGAAGAGCCUUGGUUUUUUG [C11G G113A]"
  polymerase ribozyme fitness (log ratio): -0.119
- ENTRY_SEQUENCE: "GACCAAGCUGCCCUCAGAGCUCGAGAACAUCUUCGGAUGCAGAGGAGGCAGGCUUAGGUGGCGCGAUAGCGCCAACGUCCUCAACCUCCAAUGCAUCCCACCACAUGAUGAUGCCUGAAGAGCCUUGGUUUUUUG [U7G C56A]"
  polymerase ribozyme fitness (log ratio): 0.0403
- ENTRY_SEQUENCE: "GACCAAUCUGCCCUCAGAGCUCGAGAACAUCUUCGGAUGCAGAGGAGGCAGGCUUCGGUGGCGCGAUAGCGCCAACGUCCUCAAUCUCCAAUGCAUCCCACCACAUGUUGAUGCCUGAAGAGGCUUGGUUUUUUG [C85U A108U C123G]"
  polymerase ribozyme fitness (log ratio): -6.32
- ENTRY_SEQUENCE: "GACCCAUCUGCCCUCAGAGCUCGAGAACAUCUUCGGAUGCAGAGGAGGCAAGCUUCGGUGGUGCGAUAGCGCCAACGGCCUCAACCUCCAAUGCAUCCCACCACAUGAUGAUGCCUGAAGAGCCUUGGUUUUUUG [A5C G51A C62U U78G]"
  polymerase ribozyme fitness (log ratio): -3.87
- ENTRY_SEQUENCE: "GACCAAUCUGCCCUCAGAGCUCGAGAACAUCUUCGGAUGCAGAGGAGGCAGGCUUCGGUGGCGCGAUAGCGCCAACAUCCUCAUCCUCCAAUGCAUCCCACCACAUGAUGAGGCCUGAAGAGCCUUGGUUUUUUG [G77A A84U U112G]"
  polymerase ribozyme fitness (log ratio): -2.45
- ENTRY_SEQUENCE: "GACCAAUCUGCCCUCAGAGCUCGAGAACAUCUUCGGAUGCAGAAGAGGCAGGCUUCGGUGCCGCGAUAGCGCCAACGUCCUCAACCUCCAAUGCAUCCCACCACAUGAUGAUGCCUGAAGAGCCUUGGUUUUUUG [G44A G61C]"
  polymerase ribozyme fitness (log ratio): -3.11
- ENTRY_SEQUENCE: "GGCCAAUCUGCCCUCAGAGCUCGAGAACAUCUUCGGAUGCAGAGGAGGCAGGCUUCGGUGGCGCGAUGGCGCCAACGUCCUCAACCUCCAAUGCAUCCCACCACAGGAUGAUGCCUGAAGAGCCGUGGUUUUUUG [A2G A68G U106G U125G]"
  polymerase ribozyme fitness (log ratio): -5.29
- ENTRY_SEQUENCE: "GACCAAUCUGCACUCAGAGCUCGAGAACAUCUUCGGAUGCAGAGGAGGCACGCUUCGGUGGCGCGAUAGCGCCAACGUCCUCAACCUCCAAUGCAUCCCACCACAUGAUGAUGCCUGAAGAGCCUUGGUUUUUUG [C12A G51C]"
  polymerase ribozyme fitness (log ratio): -4.5
- ENTRY_SEQUENCE: "GACCAAUCUCCCCUCAGAGCUCGAGAAGAUCUUCGGAUGCAGAGGAGGCAGGCUUCGGUGGCGCGAUAGCGCCAACGUCCUCAACCUCCAAUGCAUCCCACCACAUGAUGAUGCCUGAAGAGCCUUGGUUUUUUG [G10C C28G]"
  polymerase ribozyme fitness (log ratio): -3.74
- ENTRY_SEQUENCE: "GACCAAUAUGCCCUCAGAGCUCGAGAACAUCUUCGGAUGCAGAUGAGGCAUGCUUCGGCGGCGCGAUAGCGCCAACUUCCUCAACCUCCAAUGCAUCCCACCACAUGAUGACGCCUGAAGAGCCUUGGUAUUUUG [C8A G44U G51U U59C G77U U112C U130A]"
  polymerase ribozyme fitness (log ratio): -4.84
- ENTRY_SEQUENCE: "GACCUAUCUGCCCUCAGAGCUCGAGAACAUCUUCGGAUGCAGAGGAUGCAGGCUUCGGUGGCGCGAUAGCGCCAACGUCCUCAACCUCCAAUGCAUCCCACCACAUGAUGAUGCCUGAAGAGCCUUGGUUUUUUG [A5U G47U]"
  polymerase ribozyme fitness (log ratio): -1.29
